Tested on: EMT6
assayExplanation: Compound was evaluated for cytotoxicity against murine mammary carcinoma EMT6 cell lines for 4 hr at pH-7.4
Format: functional, cell-based
conditions: Mus musculus, EMT6, 4 h
pIC50: −log10 of the molar value.
Record form. Attribute: pIC50. Fill in for each entry.

[[record]]
molecule = "CS(=O)(=O)N1CC(CCl)c2ccc(SSc3ccc4c(c3)N(S(C)(=O)=O)CC4CCl)cc21 (stereo not drawn)"
result = "< 4.30"

[[record]]
molecule = "CS(=O)(=O)N1CC(CCl)c2ccc(S)cc21 (stereo not drawn)"
result = "< 3.70"


Now take the following molecule into account.
So what does the record say about pIC50 for CSc1ccc2c(c1)N(S(C)(=O)=O)CC2CCl (stereo not drawn) ?
< 3.70
